Entry source: patent US10835542B2

# method.summary: Intra-pulmonary (ELF, AC/AM by BAL) and plasma PK after multiple iv doses in healthy adult subjects
# Format: in vivo, human
# applied.conditions: human, alveolar macrophages (AM); 0.5 h after fifth 100 mg iv dose; read-out: AM concentration (mean ± SD)
test.readout: concentration at 0.5 h (ng/mL)
Note: unit ng/mL is implicit; provide only the numeric part.

Query: concentration at 0.5 h; subject: `CN(C)c1cc(CNCC(C)(C)C)c(O)c2c1C[C@H]1C[C@H]3[C@H](N(C)C)C(O)=C(C(N)=O)C(=O)[C@@]3(O)C(O)=C1C2=O` 14300

* * *

# method.summary: Intra-pulmonary (ELF, AC/AM by BAL) and plasma PK after multiple iv doses in healthy adult subjects
# Type: in vivo, human
# applied.conditions: human, alveolar macrophages (AM); 2 h after fifth 100 mg iv dose; read-out: AM concentration (mean ± SD)
test.readout: concentration at 2 h (ng/mL)
Give the value in ng/mL but do not write ng/mL after it.

Please give the measured concentration at 2 h for this compound: `CN(C)c1cc(CNCC(C)(C)C)c(O)c2c1C[C@H]1C[C@H]3[C@H](N(C)C)C(O)=C(C(N)=O)C(=O)[C@@]3(O)C(O)=C1C2=O` 10800
